Recorded values, source the nanobody polyreactivity screen of Harvey et al. (2022).

test: yeast display, Sf9 membrane polyspecificity reagent, FACS + sequencing; frameworks hold sequencing errors
QUANTITY MEASURED: polyreactivity (PSR sort gate)

Some sequences with recorded polyreactivity (PSR sort gate):
SEQUENCE RECORD	polyreactivity (PSR sort gate)
QVQLVESGGGLVQAGGSLRLSCAASGSILRQYAMGWYRQAPGKERELVATITGDGSTNYADSVKGRFTISRDNAKNTVYLQMNSLKPEDTAVYYCNTYLTYPYPNVEVLVYGFKLDYWGQGTQVTVSS	low polyreactivity
QVQLVESGGGLVQAGGRLRLSCAASGSIFDYNGMGWYRQAPGKERELVATITLSTARTYYADSVKGRFTISRDNAKNTVYLQMNSLKPEDTAVYYCATRYPKFRRRNYWGQGTQVTVSS	high polyreactivity
QVQLVESGGGLVQAGGSLRLSCASSGLISRRNAMGWYRQAPGKERELVAAISTGSSTNYADSVKGRFTISRDNAKNTVYLQMNSLKPEDTAVYYCAATQYWWSTLGIRDDYWGQGTQVTVSS	low polyreactivity
QVQLVESGGGLVEAGGSLRLSCAASGSTFGVNAMGWSRQAPGKERELVAVITRSGGSTYYADSVKGRFTISRDNAKNTVYLQMNSLKPEDTAVYYCAKSGVVDWGQGTQVTVSS	low polyreactivity

I would be grateful if you could share the reported polyreactivity (PSR sort gate) for QVQLVESGGGLVQAGGSLRLSCAASGPIFVHNAKGWYRQAPGTERELVAAISWRATRTYYADSVKGRFTISRDNAKNTVYLQMNSLKPEDTAVYYCAAVTPAYSTSTSSYDYWGQGTQVTVSS .
high polyreactivity

---

assay: yeast display, Sf9 membrane polyspecificity reagent, FACS + sequencing; frameworks hold sequencing errors
QUANTITY MEASURED: polyreactivity (PSR sort gate)

Some sequences with recorded polyreactivity (PSR sort gate):
SEQUENCE RECORD	polyreactivity (PSR sort gate)
QVQLADSGGGLVQAGGSLRLICAASGTFGSNAMGWYIQAPGKERELVAAINSGGTTKYADSVKGRFTISRDNAKNTVYLQMNRLKPEDSALYYCNAREGVFSYTVAHDYWGQGTQVTVSS	low polyreactivity
QVQLVESCGGLVQEGGSLRLSSAASGSIRYYALGWYRQAPGKESELVAAISSRGTNTYYADSVKGSITISRDNAKNTVYLQMKSQKPEDTAVYYCNAVVGLGYNYWGQGTQVSVSS	high polyreactivity
QVQLVESGGGLVQAGGSLRLSCAASGSTFLNYAMGWYRQAPGKERELVASISYSAGSTYYADSVKGRFTISRDNAKNTVYLQMNSLKPEDTAVYYCAARLARAGYWRRNYYYWGQGTQVTVSS	high polyreactivity
QVHLVESGGGLVQAGCSLRLSCAASGFTYYYYAIGWYRQAPGTEMELVAAISSGGSTNYADSVKGRFTISRDNANNTVYLQMNSLKPEDTAVYYCAATQPYWWAYRYDYWGQGTKVTVSS	low polyreactivity
QVQLVESGGGLVQAGGSLRLSCAASGSIFGQYAMGWYRQAPGKERELVAAISTRGGSTRYADSVKGRFTISRDNAKNTVYLQMNSLKPEDTAVYYCAARPGYLYDYWGQGTQVTVSS	high polyreactivity

I would be grateful if you could share the reported polyreactivity (PSR sort gate) for QVQLVESGGGLVQAGGSLRLSCAASGFIFDGNAMGWYRQAPGKERELLAAISWDGGTYYADSVKGRFTISRDNAKNTVYLQMNSLKPEDTAVYYCNKPYGAETAHREFDYWGQGTQVTVSS .
low polyreactivity

Again, but for QVQLVESGGGLVQAGGSLRLSCAASGIFWYNMGWYRPAPGKERELVAAITASGGSRTYYADSVKGRFTISRDNAKNTVYLQMNSLKPEDTAVYYCAASSYSYLYYSWGQGTQVTVSS
high polyreactivity

Again, but for QVQLVESGGGLVQSGGSLRLSCAASGITFFFNAMGWYRQAPGKERELVAPITSGGGSTYYADSVKGRFTISRENAKNTVYLQMNSLKPEDTAVYYCAAEWSYGGMDYWGQGTQVTVSS
low polyreactivity

Again, but for QVQLVESGGGLVQAGGSLRLSCAASGNIICGNAMGWYRQAPGKERELVAAISRRSGSTYYADSVKGRFTISRDNAKNTVYLQMNSLKPEDTAVYYCNTAGRVGTYDYWGQGTQVTVSS
high polyreactivity

Again, but for QVQLVESGGGLVQAGGSLRLSCAASGIIFRRNAMGWYRQAPGKERELVAAIRWSGGSTYYADSVKGRFTISRDNAKNTVYLQMNSLKPEDTAVYYCAARYYRPRYEMDYWGQGTQVTVSS
low polyreactivity

Again, but for QVQLVESGGGLVQAGGSLRLSCAASGIIFSDYGMGWDRQAPGKERELVAAINSGGRTYSADSVKGRFTISRDNAKNTVYLQMNSLKPEDTAVYYCAADTQGSRYDYWGQGTQVTVSS
high polyreactivity

---

assay: yeast display, Sf9 membrane polyspecificity reagent, FACS + sequencing; frameworks hold sequencing errors
QUANTITY MEASURED: polyreactivity (PSR sort gate)

Some sequences with recorded polyreactivity (PSR sort gate):
SEQUENCE RECORD	polyreactivity (PSR sort gate)
QVQLVESGGGLVQAGGSLRLICASSGRIFAGYAMGWYRQAPGKERELVAAIRDSGRTYYAVSVKGRFTISRDNAKNTVYLQMNSLKPEVTAVSYCAADAHSSYSPFRWYDYWGQGTQVTVSS	low polyreactivity
QVQLVESGGGLVQAGGSLRLSCPASGSTFWYYDMGWSRQAPGKERELVAAISGSGGRTYYADSVKGRFTISRDNAKNTVYLQMNSLKPEDTAVYYCAADYYWSADFKYNDWGQGTQVTVAS	low polyreactivity
KVQLLESGGGLFQAGGSVRLSCAASGSIIFTYAMGWSRQSPGTEREWVAVITWCGGSTYYADSVKGRFTISRDYAKNTVYLQMNSLKPEDTAVYYCAKDSYYYRRDVTVDYWVQGTQVTVSS	low polyreactivity
QVQLVESGGGLVQAGGSLRLSCAASGSIFACYAMGRYRQAPGKERELVATITWSGGSTYYADSVKGRFTISRDNAKNTVYLQMNSLKPEDTAVYYCAAEVVGIWYDLWYQGDYWGQGTQVTVSS	low polyreactivity

I would be grateful if you could share the reported polyreactivity (PSR sort gate) for QVHLVESGGGLVQAGGSLRLSCSASGITFLTYTMGWYRQEPGKERELVASIRYSTGSTYYADSVKGRFTISRDNAKNTVYLQMNSLKPEDTAVYYCNDYSSYIKYDYWGQGTQVTVTS .
high polyreactivity

Again, but for QVQLVDSGGGLVQAGGSLRLSCAASGRTVRYYTMGWYRQAPGKERELVAAISNAASTNYADSVKGRFTISRDNAKNTVYLQMNSLKPEDTAVYYCNAYLHYRAGHPRGYHNRYYYWGQGTQVTVSS
high polyreactivity

Again, but for QVQLVESGGGLVQAGGILRLSCAASGRTFSRYAMGWYRQAPGKERELVAAITWDGGSTYYADSVKGRFTISRDNAKNSVYLLMNSLKPEDTAVYYFAARYIRNRMNYWGQGTQVTVSS
high polyreactivity

Again, but for QVQLVESGGGLVQAGGSLRLSCAASGSTFILNAMGWYRQAPGKEWELVAAISRSGGNTYYADSVKGRFTISRDIAKNTVYLQMNSLKPEDTAVYYCAATRRSHYYYWGQGTQVTVSS
high polyreactivity

Again, but for QVQLEESGGGLVQAGGSLRLICAATGSIFSFYAMGWYRQAPGKEREWVAAIDVSGGSTYYADSVKGRFTISRDNAKNTVYLQMNSLKPEDTAVYYCAKDVRDQYDYWGQGTQVTVSS
low polyreactivity

---

test: yeast display, Sf9 membrane polyspecificity reagent, FACS + sequencing; frameworks hold sequencing errors

SEQUENCE RECORD	polyreactivity (PSR sort gate)
QVQLVESGGGLVQAGGSLRLSCAASGFTFRAYAMGWYRQAPGKERELVAAISTGGGSTYYADSVKGRFTISRDNEKNTVYLQMNSLKPEDTAVYYCNALPQRRYYYWGQGTQVTVSS	high polyreactivity
QVQLLDAGGGLDQAGGSLRLRCAASGSIFRYYPMGWYRQAPGKQREMVASISWSGTSTYYADSVKGRFTISRDNAKNTVYLPRNSLKPEDTAVYYCNKDRWGRYYTRYDYWGQGTQVTVSS	high polyreactivity

---

experiment: yeast display, Sf9 membrane polyspecificity reagent, FACS + sequencing; frameworks hold sequencing errors
QUANTITY MEASURED: polyreactivity (PSR sort gate)

SEQUENCE RECORD	polyreactivity (PSR sort gate)
QVQLVESGGGLVQAGGSLRLSCAASGSIFVRYTMGWYRQAPGKEREMVAAISWGGGSTYYADSVKGRFTISRDNAKNTVYLQMNSLKPEDTAVYYCNADWSWYNYYDFDYWGQGTQVTVSS	low polyreactivity
QVQHVESGGGLVQAVGSLRLSCAASGRIVYYVMGWYRQAPGKERELVAAISTRGGSTYYADSVKGRFTISLDNAKNTVYLQMNSLTPEDTAVYYCAASSLLTRYNSWGQGTQVTVSS	high polyreactivity
QVQLVESGGGLVQAGASLRLSCAASGRIFNGYAMGWYRQAPWKERELVATIRYRGDNTYYADSVKGRFTISRDNAKNTVYLQMNSLKPEDTAVYYCNARVWYTSTSSWAKRYNYWGQGTQVTVSS	high polyreactivity
QVQLVESGAGLVQAGGSLRLSCAASGITFYDNDMGWYRQPPGKERELVAGITGTTVGTYYADSVKGRFTISRDIAKNTVYLQMNSLKPEDTAVYYALLTVVVPYQYYSLSLNTLDSWGQGTQVTVSS	low polyreactivity

Consider the record given below.
I would be grateful if you could share the reported polyreactivity (PSR sort gate) for QVQLVESGVGLVQAGGSLRLSCAASGSTFVYMGWYRQAPGKEREFVAAITWSGGSTYYADSVKGRFTISRDNAKNTVYLQMNSLKPEDTAVYYCNAVSVFPGWARYYYWGQGTQVTVSS .
low polyreactivity
